- assayed target: mouse Estrogen Receptor alpha (Era), Esr1 (gene 13982) (UniProt P19785)
- Sequence (P19785 whole entry, looked up): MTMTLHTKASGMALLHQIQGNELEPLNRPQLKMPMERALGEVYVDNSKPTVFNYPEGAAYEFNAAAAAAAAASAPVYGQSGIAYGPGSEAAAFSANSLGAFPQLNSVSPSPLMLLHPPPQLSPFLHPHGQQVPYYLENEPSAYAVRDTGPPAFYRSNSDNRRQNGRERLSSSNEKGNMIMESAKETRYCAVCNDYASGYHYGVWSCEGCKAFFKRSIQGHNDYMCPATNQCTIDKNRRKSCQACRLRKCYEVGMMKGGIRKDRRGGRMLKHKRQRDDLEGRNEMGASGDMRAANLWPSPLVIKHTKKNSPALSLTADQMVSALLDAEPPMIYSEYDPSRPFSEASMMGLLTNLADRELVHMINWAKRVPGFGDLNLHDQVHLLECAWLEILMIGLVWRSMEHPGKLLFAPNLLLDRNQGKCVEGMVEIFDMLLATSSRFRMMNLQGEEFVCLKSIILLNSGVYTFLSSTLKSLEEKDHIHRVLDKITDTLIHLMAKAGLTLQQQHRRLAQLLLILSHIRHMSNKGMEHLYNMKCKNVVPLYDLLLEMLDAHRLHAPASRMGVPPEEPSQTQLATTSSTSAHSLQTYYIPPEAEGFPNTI
- experimental details: NVS_NR_mERa: NovaScreen (NVS) Nuclear Receptor Binding Assay for mouse Estrogen Receptor alpha (Era) (AID 2283378);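 further: hit means loss of bound radioligand signal relative to DMSO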
Inconclusive results are not listed. Active and inactive are the calls of the source. How the source made its calls: active means hit-call score of the fitted dose curve at least 0.9, where 1 is the maximum; inconclusive means response in the unintended direction; inactive means score below 0.9.
Hi there, use one of these labels in your reply, thanks! y = active, n = inactive

Task item: So what was the verdict on `O=C(N[C@@H](Cc1ccccc1)[C@@H](O)C(=O)N1C[C@@H](O)[C@@H](O)C1)c1cc2cc(Cl)ccc2[nH]1` in this test?
Reply: n

Task item: So what was the verdict on `COC(=O)c1ccc(O)cc1` in this test?
Reply: n

Task item: So what was the verdict on `CCCCCCC(=O)OCC` in this test?
Reply: n

Task item: So what was the verdict on `O=C(O)Cc1ccccc1Nc1c(Cl)cccc1Cl` in this test?
Reply: n

Task item: So what was the verdict on `C[Si]1(C)O[Si](C)(C)O[Si](C)(C)O[Si](C)(C)O1` in this test?
Reply: n

Task item: So what was the verdict on `CN1CCN(Cc2cc(-c3ccc4[nH]c(=O)oc4c3)co2)[C@@H](c2ccc(F)cc2)C1` in this test?
Reply: y

Task item: So what was the verdict on `CC(C)(C)c1cc(O)c(C(C)(C)C)cc1O` in this test?
Reply: n
